Assayed target: T1, biotin-labeled ALG-2 (human, UniProt O75340 1-191, biotin-labeled)
T1 construct: ALG-2 (PDCD6), probe of the far-Western blots; also called bio-ALG-2
T1 sequence (O75340 whole entry): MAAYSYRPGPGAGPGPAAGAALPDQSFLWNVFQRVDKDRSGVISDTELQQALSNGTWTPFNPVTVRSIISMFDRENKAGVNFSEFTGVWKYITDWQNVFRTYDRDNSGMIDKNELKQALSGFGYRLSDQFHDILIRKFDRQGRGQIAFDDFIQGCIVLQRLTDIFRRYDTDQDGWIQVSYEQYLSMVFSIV
Test name: far-Western, overlay or dot blot; purified GST-fused peptides resolved by SDS-PAGE, transferred to PVDF membranes and probed with biotin-labeled ALG-2; chemiluminescence, quantified with ImageJ
Settings: both partners purified
Reported endpoint: binding result

Worked examples, 5 binders total:
NPPPAGFI (Sec31A residues 837-844; numbers count on: the 8-residue peptide (N1 = residue 837 of Sec31A)) [GST-fused Sec31A 8-residue peptide P5A]: binds
NPPPLGFI (Sec31A residues 837-844; numbers count on: the 8-residue peptide (N1 = residue 837 of Sec31A)) [GST-fused Sec31A 8-residue peptide P5L]: binds
NPPAPGFI (Sec31A residues 837-844; numbers count on: the 8-residue peptide (N1 = residue 837 of Sec31A)) [GST-fused Sec31A 8-residue peptide P4A]: binds
NAPPPGFI (Sec31A residues 837-844; numbers count on: the 8-residue peptide (N1 = residue 837 of Sec31A)) [GST-fused Sec31A 8-residue peptide P2A]: binds
NPPPPGFIMHGNV (peptide, UniProt O94979 837-849, looked up, Sec31A residues 837-849; also called Sec31A 13 aa, encoding 837–849) [GST-fused Sec31A peptide, 13 aa (837–849)]: binds

Turning to the following binder.
Documented binding result of PPPGFIMHGNVNP (peptide, UniProt O94979 839-851, looked up, also called Sec31A 13 aa, encoding 839–851) [GST-fused Sec31A peptide, 13 aa (839–851)] : binds
